Let's look at some molecules and their measured remaining activity at 25 µM.
# test system: L1 EN (LINE-1 retrotransposon endonuclease domain) (Homo sapiens, UniProt O00370, N5T)
# Sequence (O00370 1-239 N5T): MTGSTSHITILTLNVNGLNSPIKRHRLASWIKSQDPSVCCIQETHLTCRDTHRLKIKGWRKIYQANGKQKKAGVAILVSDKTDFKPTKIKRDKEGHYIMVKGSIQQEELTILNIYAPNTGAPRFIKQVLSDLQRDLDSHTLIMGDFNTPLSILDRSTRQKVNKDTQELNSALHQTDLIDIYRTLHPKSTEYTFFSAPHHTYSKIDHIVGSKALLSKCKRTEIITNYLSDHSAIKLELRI
# run description: Fluorescent oligonucleotide EN nicking activity assay
# Type: biochemical
# experimental parameters: read-out: EN activity, percent of no inhibitor control
All answers are understood in %, so give the number only.

Field: example entries. Status: answers known.
chemical structure: C/C(=N\Nc1ccc([N+](=O)[O-])cc1[N+](=O)[O-])c1ccc(-n2nncc2C(C)(C)C)cc1
units label: %
remaining activity at 25 µM: 86.8
--
chemical structure: Cc1cc(=O)oc2c3c(ccc12)O/C(=N/Nc1ccc([N+](=O)[O-])cc1[N+](=O)[O-])C3=O
units label: %
remaining activity at 25 µM: 46.1
--
chemical structure: C/C(C[C@H](c1ccccc1)c1c(O)c2ccccc2oc1=O)=N\Nc1ccc([N+](=O)[O-])cc1[N+](=O)[O-]
units label: %
remaining activity at 25 µM: 95.7
--
chemical structure: O=C(CCCCCCCCCCC(=O)Nc1cccc([N+](=O)[O-])c1)Nc1cccc([N+](=O)[O-])c1
units label: %
remaining activity at 25 µM: 6.58

Could you now consider this next molecule?
input: Specify reported remaining activity at 25 µM for the molecule shown: O=C1c2ccc(Oc3ccc4c(c3)C(=O)N(Nc3ccc([N+](=O)[O-])cc3[N+](=O)[O-])C4=O)cc2C(=O)N1Nc1ccc([N+](=O)[O-])cc1[N+](=O)[O-]
output: 25.1

###

Form field: APE1 percent activity, average (one value per entry).
# test system: APE1 (Homo sapiens, UniProt P27695)
# Construct: purchased New England Biolabs (NEB) M0282S
# run description: APE1 fluorescent oligonucleotide activity assay (abasic site substrate)
# Format: biochemical
Expressed in %, but write only the number.

Example entries begin here.
chemical structure: C/C(=N\Nc1ccc([N+](=O)[O-])cc1[N+](=O)[O-])c1ccc(-n2nncc2C(C)(C)C)cc1
units label: %
APE1 percent activity, average: 118.815
--
chemical structure: O=C(NCCCCCCNC(=O)Nc1cccc([N+](=O)[O-])c1)Nc1cccc([N+](=O)[O-])c1
units label: %
APE1 percent activity, average: 107.877
--
chemical structure: Cc1cc(=O)oc2c3c(ccc12)O/C(=N/Nc1ccc([N+](=O)[O-])cc1[N+](=O)[O-])C3=O
units label: %
APE1 percent activity, average: 109.324

input: Please report APE1 percent activity, average for the following molecule: O=C1c2ccc(Oc3ccc4c(c3)C(=O)N(Nc3ccc([N+](=O)[O-])cc3[N+](=O)[O-])C4=O)cc2C(=O)N1Nc1ccc([N+](=O)[O-])cc1[N+](=O)[O-]
output: 84.3526

input: Fill in APE1 percent activity, average for record O=C(O)[C@H](CCCCNc1ccc([N+](=O)[O-])cc1[N+](=O)[O-])Nc1ccc([N+](=O)[O-])cc1[N+](=O)[O-]
output: 96.2279

input: Assign APE1 percent activity, average to the following record: O=C(CCCCCCCCCCC(=O)Nc1cccc([N+](=O)[O-])c1)Nc1cccc([N+](=O)[O-])c1
output: 79.3849

input: Give APE1 percent activity, average for C/C(C[C@H](c1ccccc1)c1c(O)c2ccccc2oc1=O)=N\Nc1ccc([N+](=O)[O-])cc1[N+](=O)[O-]
output: 103.516

###

APE1 percent activity, Replicate 1 overview
# test system: APE1 (Homo sapiens, UniProt P27695)
# Construct: purchased New England Biolabs (NEB) M0282S
# run description: APE1 fluorescent oligonucleotide activity assay (abasic site substrate)
# Assay type: biochemical
# experimental parameters: compound at 25 μM; Replicate 1
Numeric only. Scale: %

Sample records with APE1 percent activity, Replicate 1:
compound: Cc1cc(O[C@H](C)C(=O)NC[C@H]2CC[C@H](C(=O)O)CC2)c2c3c(c(=O)oc2c1)CCC3 [AD50]
APE1 percent activity, Replicate 1, %: 117.885
--
compound: O=C(Cn1nc(-c2ccc(Br)cc2)ccc1=O)NC[C@H]1CC[C@H](C(=O)O)CC1 [AD43]
APE1 percent activity, Replicate 1, %: 116.306

Please turn your attention to the following entry.
input: State, in one line, measured APE1 percent activity, Replicate 1 of COc1ccc2c(c1)C(=O)N(CCc1ccc(S(=O)(=O)NC(=O)NC3CCCCC3)cc1)C(=O)C2(C)C [AD12]
output: 105.329

###

Reported APE1 percent activity, Replicate 2 values for the following molecules.
# test system: APE1 (Homo sapiens)
# Construct: purchased New England Biolabs (NEB) M0282S
# run description: APE1 fluorescent oligonucleotide activity assay (abasic site substrate)
# Format: biochemical
Form entry: value (%) — number only.

These solved cases illustrate the format of a correct answer.
molecule: O=C(CCCCCCCCCCC(=O)Nc1cccc([N+](=O)[O-])c1)Nc1cccc([N+](=O)[O-])c1 [AD11]
endpoint result: 89.204

molecule: O=C(O)[C@H](CCCCNc1ccc([N+](=O)[O-])cc1[N+](=O)[O-])Nc1ccc([N+](=O)[O-])cc1[N+](=O)[O-] [AD2]
endpoint result: 92.3765

molecule: O=C(NCCCCCCNC(=O)Nc1cccc([N+](=O)[O-])c1)Nc1cccc([N+](=O)[O-])c1 [AD32]
endpoint result: 106.706

molecule: C/C(=N\Nc1ccc([N+](=O)[O-])cc1[N+](=O)[O-])c1ccc(-n2nncc2C(C)(C)C)cc1 [AD7]
endpoint result: 113.794

molecule: O=C1c2ccc(Oc3ccc4c(c3)C(=O)N(Nc3ccc([N+](=O)[O-])cc3[N+](=O)[O-])C4=O)cc2C(=O)N1Nc1ccc([N+](=O)[O-])cc1[N+](=O)[O-] [AD13]
endpoint result: 88.0071

input: Indicate its recorded APE1 percent activity, Replicate 2; the molecule in question is Cc1cc(=O)oc2c3c(ccc12)O/C(=N/Nc1ccc([N+](=O)[O-])cc1[N+](=O)[O-])C3=O [AD5]
output: 107.526

###

# test system: APE1 (Homo sapiens)
# Construct: purchased New England Biolabs (NEB) M0282S
# run description: APE1 fluorescent oligonucleotide activity assay (abasic site substrate)
# Type: biochemical
# experimental parameters: 250 µM; Supplementary Fig. 6b, n=3
observable: Percent APE1 activity, average (%)
Give a bare numeral; the unit % is implied.

Worked cases, answers included:
compound: O=C(Cn1nc(-c2ccc(Br)cc2)ccc1=O)NC[C@H]1CC[C@H](C(=O)O)CC1 [AD43]
test system: APE1 (Homo sapiens)
Percent APE1 activity, average (%): 116.3
//
compound: COc1ccc2c(c1)C(=O)N(CCc1ccc(S(=O)(=O)NC(=O)NC3CCCCC3)cc1)C(=O)C2(C)C [AD12]
test system: APE1 (Homo sapiens)
Percent APE1 activity, average (%): 114.2
//
compound: COc1ccc(OC)c(NS(=O)(=O)c2ccc(NS(=O)(=O)c3cccc([N+](=O)[O-])c3)cc2)c1 [AD36]
test system: APE1 (Homo sapiens)
Percent APE1 activity, average (%): 108.9

input: Look up and report measured Percent APE1 activity, average (APE1 (Homo sapiens)) for the following compound: C[C@H]1C[C@H](C)CN(CCCNc2ccc(C(=O)Nc3ccc(C(F)(F)F)cc3)cc2[N+](=O)[O-])C1 [AD9]
output: 100.1

###

# test system: L1 EN (LINE-1 retrotransposon endonuclease domain) (Homo sapiens, UniProt O00370, N5T)
# run description: Fluorescent oligonucleotide EN nicking activity assay
# Type: biochemical
# experimental parameters: [Inhibitor] 250 μM; technical replicates 1-3, Fig. 2b source data; read-out: EN activity, percent of no inhibitor control
remaining activity at 250 µM under 60% gets rule met, anything at or over 60% gets rule not met.

molecule: Cc1cc(O[C@H](C)C(=O)NC[C@H]2CC[C@H](C(=O)O)CC2)c2c3c(c(=O)oc2c1)CCC3
class assignment: rule not met

molecule: COc1ccc([N+](=O)[O-])cc1NC(=O)c1ccc2c(c1)N(Cc1cc(C)ccc1C)C(=O)c1ccccc1S2(=O)=O
class assignment: rule met

input: Please state whether remaining activity at 250 µM is below 60% for C[C@H]1C[C@H](C)CN(CCCNc2ccc(C(=O)Nc3ccc(C(F)(F)F)cc3)cc2[N+](=O)[O-])C1
output: rule not met

input: Decide: remaining activity at 250 µM of COc1ccc(OC)c(NS(=O)(=O)c2ccc(NS(=O)(=O)c3cccc([N+](=O)[O-])c3)cc2)c1 strictly below 60%?
output: rule met

input: For Nn1cnn2c(SCC(=O)Nc3nnc(SCC(=O)Nc4ccc(S(N)(=O)=O)cc4)s3)nnc12 , is the recorded remaining activity at 250 µM below the cut-off of 60%?
output: rule met

input: remaining activity at 250 µM under 60%? Item: COc1ccc2c(c1)C(=O)N(CCc1ccc(S(=O)(=O)NC(=O)NC3CCCCC3)cc1)C(=O)C2(C)C
output: rule not met

input: Bench note: check whether O=C(O)C1CCC(Cn2c(=S)[nH]c3ccc(F)cc3c2=O)CC1 (stereo not shown) shows remaining activity at 250 µM below 60%
output: rule met
